Molecular target: T1, integrin αvβ3 (Homo sapiens, UniProt P06756)
T1 chain 1: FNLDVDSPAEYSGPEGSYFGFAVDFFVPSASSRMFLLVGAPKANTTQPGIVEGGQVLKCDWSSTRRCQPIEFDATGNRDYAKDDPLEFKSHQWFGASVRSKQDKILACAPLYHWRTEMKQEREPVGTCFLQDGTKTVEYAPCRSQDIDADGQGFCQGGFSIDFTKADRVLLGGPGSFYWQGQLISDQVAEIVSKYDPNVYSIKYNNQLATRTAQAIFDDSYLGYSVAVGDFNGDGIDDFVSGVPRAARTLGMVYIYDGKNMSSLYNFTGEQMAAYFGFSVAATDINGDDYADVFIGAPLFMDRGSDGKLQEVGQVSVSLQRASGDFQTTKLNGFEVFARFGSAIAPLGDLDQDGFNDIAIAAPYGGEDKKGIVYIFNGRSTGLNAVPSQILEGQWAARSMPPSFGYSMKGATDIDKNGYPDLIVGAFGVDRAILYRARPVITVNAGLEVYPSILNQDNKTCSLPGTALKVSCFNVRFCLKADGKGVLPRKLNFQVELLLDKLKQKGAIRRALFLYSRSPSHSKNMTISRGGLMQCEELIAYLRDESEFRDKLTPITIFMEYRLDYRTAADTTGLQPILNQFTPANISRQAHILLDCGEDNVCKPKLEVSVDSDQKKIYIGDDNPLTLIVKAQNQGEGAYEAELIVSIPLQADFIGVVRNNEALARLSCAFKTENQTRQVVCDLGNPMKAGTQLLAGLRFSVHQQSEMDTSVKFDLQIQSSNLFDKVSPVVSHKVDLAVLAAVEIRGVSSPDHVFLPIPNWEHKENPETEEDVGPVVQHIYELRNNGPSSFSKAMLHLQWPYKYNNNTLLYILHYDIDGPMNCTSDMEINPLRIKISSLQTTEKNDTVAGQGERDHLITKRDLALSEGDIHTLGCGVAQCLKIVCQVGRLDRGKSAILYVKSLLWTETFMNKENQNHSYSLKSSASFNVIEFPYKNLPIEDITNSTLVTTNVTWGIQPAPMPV
T1 chain 2: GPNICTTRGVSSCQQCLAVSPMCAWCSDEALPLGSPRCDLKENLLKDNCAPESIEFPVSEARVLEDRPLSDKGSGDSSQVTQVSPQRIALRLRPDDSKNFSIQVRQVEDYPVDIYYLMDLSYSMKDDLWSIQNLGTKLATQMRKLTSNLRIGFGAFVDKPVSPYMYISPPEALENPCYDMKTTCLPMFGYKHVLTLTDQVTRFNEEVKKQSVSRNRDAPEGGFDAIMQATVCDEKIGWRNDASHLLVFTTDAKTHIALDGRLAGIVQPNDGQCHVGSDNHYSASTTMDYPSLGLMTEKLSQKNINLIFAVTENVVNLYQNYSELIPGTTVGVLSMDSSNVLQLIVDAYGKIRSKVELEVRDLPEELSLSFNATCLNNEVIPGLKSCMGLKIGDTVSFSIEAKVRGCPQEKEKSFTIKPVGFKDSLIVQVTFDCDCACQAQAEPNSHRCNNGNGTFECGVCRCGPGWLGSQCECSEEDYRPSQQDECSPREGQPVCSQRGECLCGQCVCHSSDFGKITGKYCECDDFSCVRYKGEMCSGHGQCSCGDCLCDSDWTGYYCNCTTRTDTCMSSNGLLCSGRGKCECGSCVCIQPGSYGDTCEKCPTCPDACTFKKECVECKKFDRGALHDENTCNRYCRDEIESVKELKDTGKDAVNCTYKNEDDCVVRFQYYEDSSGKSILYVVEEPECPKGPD
Experiment: competitive solid-phase binding assay with biotinylated vitronectin
Where no end group is shown, it is not given here.
test readout: IC50
Remember to follow the number with its unit.

Past entries and their recorded results:
- GRGDS (not fully specified) [GRGDS-CNP 20% (28 peptides per CNP)]: 5.21 nM
- GRGDS (not fully specified) [GRGDS-CNP 5% (7 peptides per CNP)]: 78.5 nM
- GRGDS (not fully specified) [GRGDS-CNP 50% (70 peptides per CNP)]: 1.08 nM

Now turn to the next binder.
Which IC50 value is on record for GRGDS (not fully specified) [GRGDS-CNP 10% (14 peptides per CNP)] ?
12.5 nM
